# target.entity: Histone-arginine methyltransferase CARM1 (Homo sapiens)
# procedure.details: Inhibition of CARM1-mediated methylation of PABP1 after 90 mins by scintillation counting in presence of S-adenosyl-l-[methyl-3H]methionine
readout.name: IC50 (µM)

As a guide, the following entries are already answered.
O=C1/C(=C/c2ccc(O)c(Br)c2)CN(Cc2ccccc2)C/C1=C\c1ccc(O)c(Br)c1	8.6
O=C1/C(=C/c2ccc(O)c(Br)c2)CN(Cc2ccc(Cl)cc2)C/C1=C\c1ccc(O)c(Br)c1	12.2
Cc1ccc(CN2C/C(=C\c3ccc(O)c(Br)c3)C(=O)/C(=C/c3ccc(O)c(Br)c3)C2)cc1	11.9

(P) Cc1ccccc1CN1C/C(=C\c2ccc(O)c(Br)c2)C(=O)/C(=C/c2ccc(O)c(Br)c2)C1
(Q) O=C1/C(=C/c2ccc(O)c(Br)c2)CN(CCCc2ccccc2)C/C1=C\c1ccc(O)c(Br)c1
[in] Lowest IC50? choose P or Q Kindly state the label of the option you pick.
[out] P

* * *

# target.entity: Histone-lysine N-methyltransferase SETD7 (Homo sapiens, UniProt Q8WTS6)
# Sequence (Q8WTS6 whole entry): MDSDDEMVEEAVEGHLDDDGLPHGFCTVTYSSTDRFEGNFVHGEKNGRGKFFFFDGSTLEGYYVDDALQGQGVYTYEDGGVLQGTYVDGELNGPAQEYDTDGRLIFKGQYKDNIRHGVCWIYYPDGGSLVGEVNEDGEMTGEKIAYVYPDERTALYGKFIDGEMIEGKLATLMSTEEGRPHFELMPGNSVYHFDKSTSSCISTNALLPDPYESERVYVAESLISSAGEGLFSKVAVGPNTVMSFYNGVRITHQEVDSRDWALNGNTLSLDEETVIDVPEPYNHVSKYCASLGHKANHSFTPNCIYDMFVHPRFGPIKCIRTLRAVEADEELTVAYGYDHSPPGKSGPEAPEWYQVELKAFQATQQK
# procedure.details: Inhibition of SET7-mediated methylation of histone H3 after 90 mins by scintillation counting in presence of S-adenosyl-l-[methyl-3H]methionine
readout.name: IC50

As a guide, the following entries are already answered.
O=C1/C(=C/c2ccc(O)c(Br)c2)CN(Cc2ccc(Cl)cc2)C/C1=C\c1ccc(O)c(Br)c1	> 600 µM
O=C1/C(=C/c2ccc(O)c(Br)c2)CN(CCCc2ccccc2)C/C1=C\c1ccc(O)c(Br)c1	> 667 µM
O=C1/C(=C/c2ccc(O)c(Br)c2)CN(Cc2cccc(Cl)c2)C/C1=C\c1ccc(O)c(Br)c1	174 µM
O=C1/C(=C/c2ccc(O)c(Br)c2)CN(CCc2ccccc2)C/C1=C\c1ccc(O)c(Br)c1	> 667 µM
Cc1ccccc1CN1C/C(=C\c2ccc(O)c(Br)c2)C(=O)/C(=C/c2ccc(O)c(Br)c2)C1	> 667 µM
Cc1ccc(CN2C/C(=C\c3ccc(O)c(Br)c3)C(=O)/C(=C/c3ccc(O)c(Br)c3)C2)cc1	> 333 µM
O=C1/C(=C/c2ccc(O)c(Br)c2)CN(Cc2ccccc2Cl)C/C1=C\c1ccc(O)c(Br)c1	> 667 µM
O=C1/C(=C/c2ccc(O)c(Br)c2)CN(Cc2ccccc2)C/C1=C\c1ccc(O)c(Br)c1	> 667 µM

[in] Using the record for `O=C1/C(=C/c2ccc(O)c(Br)c2)CN(CC(=O)c2ccccc2)C/C1=C\c1ccc(O)c(Br)c1` , report its IC50.
[out] 149 µM

* * *

# target.entity: Histone-arginine methyltransferase CARM1 (Homo sapiens, UniProt Q86X55)
# Sequence (Q86X55 whole entry): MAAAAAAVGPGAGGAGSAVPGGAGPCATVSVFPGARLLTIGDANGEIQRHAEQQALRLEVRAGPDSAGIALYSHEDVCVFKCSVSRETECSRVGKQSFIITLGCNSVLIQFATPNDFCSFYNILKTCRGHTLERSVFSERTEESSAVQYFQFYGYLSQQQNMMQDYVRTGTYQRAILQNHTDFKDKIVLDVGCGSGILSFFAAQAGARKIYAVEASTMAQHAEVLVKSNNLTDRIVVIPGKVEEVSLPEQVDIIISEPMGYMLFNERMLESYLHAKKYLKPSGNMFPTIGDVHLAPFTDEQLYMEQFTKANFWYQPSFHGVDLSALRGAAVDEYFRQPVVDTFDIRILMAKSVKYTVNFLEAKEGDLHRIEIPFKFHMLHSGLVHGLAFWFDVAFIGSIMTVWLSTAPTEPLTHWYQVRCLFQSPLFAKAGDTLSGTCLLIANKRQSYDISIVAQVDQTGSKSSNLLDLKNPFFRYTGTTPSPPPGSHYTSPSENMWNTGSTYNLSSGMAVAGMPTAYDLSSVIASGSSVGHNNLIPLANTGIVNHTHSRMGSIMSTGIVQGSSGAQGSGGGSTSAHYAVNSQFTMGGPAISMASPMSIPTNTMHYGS
# procedure.details: Inhibition of CARM1-mediated methylation of PABP1 after 90 mins by scintillation counting in presence of S-adenosyl-l-[methyl-3H]methionine
pIC50: −log10 of the molar value.
readout.name: pIC50

As a guide, the following entries are already answered.
O=C1/C(=C/c2ccc(O)c(Br)c2)CN(Cc2ccccc2Cl)C/C1=C\c1ccc(O)c(Br)c1	4.90
O=C1/C(=C/c2ccc(O)c(Br)c2)CN(CCc2ccccc2)C/C1=C\c1ccc(O)c(Br)c1	4.83

(1) O=C1/C(=C/c2ccc(O)c(Br)c2)CN(CC(=O)c2ccccc2)C/C1=C\c1ccc(O)c(Br)c1
(2) O=C1/C(=C/c2ccc(O)c(Br)c2)CN(Cc2cccc(Cl)c2)C/C1=C\c1ccc(O)c(Br)c1
[in] Lowest pIC50? choose 1 or 2 Kindly state the label of the option you pick.
[out] 1
(1: 4.84, 2: 5.09)
